So I've got a bunch of compounds here, and I need their IC50 values.
Assay: Displacement of [3H](S)-2-(tert-butoxy)-2-(2-methyl-4-(p-tolyl)quinolin-3-yl)acetic acid from LEDGF-binding site of recombinant T124/T125 polymorphic HIV1 integrase by LIDIA assay
Design: species or system Human immunodeficiency virus 1
Numbers only, in µM.

Some entries whose results are on file:
INSERT INTO results (compoundstring, reportedvalue) VALUES
  ('Cc1nc(C)c([C@H](OC(C)(C)C)C(=O)O)c(N2CCC(C)(C)CC2)c1-c1ccc(Oc2ccccc2)cc1', 0.0535),
  ('Cc1nc(CCOc2ccc(-c3c(C)nc(C)c([C@H](OC(C)(C)C)C(=O)O)c3N3CCC(C)(C)CC3)cc2)cs1', 0.0326),
  ('COc1ccc(CCOc2ccc(-c3c(C)nc(C)c([C@H](OC(C)(C)C)C(=O)O)c3N3CCC(C)(C)CC3)cc2)cc1', 0.0132);

Provide IC50 for all items below, preserving their order.
1. Cc1nc(C)c(CCOc2ccc(-c3c(C)nc(C)c([C@H](OC(C)(C)C)C(=O)O)c3N3CCC(C)(C)CC3)cc2)s1
2. Cc1nc(C)c([C@H](OC(C)(C)C)C(=O)O)c(N2CCC(C)(C)CC2)c1-c1ccc(OCCc2ccccn2)cc1
3. Cc1nc(C)c([C@H](OC(C)(C)C)C(=O)O)c(N2CCC(C)(C)CC2)c1-c1ccc(OCCc2ccc(F)c(F)c2)cc1
4. Cc1ncsc1CCOc1ccc(-c2c(C)nc(C)c([C@H](OC(C)(C)C)C(=O)O)c2N2CCC(C)(C)CC2)cc1
5. Cc1nc(C)c([C@H](OC(C)(C)C)C(=O)O)c(N2CCC(C)(C)CC2)c1-c1ccc(OCCc2cc(F)c(F)cc2F)cc1
6. Cc1ccc(CCOc2ccc(-c3c(C)nc(C)c([C@H](OC(C)(C)C)C(=O)O)c3N3CCC(C)(C)CC3)cc2)cc1
7. Cc1nc(C)c([C@H](OC(C)(C)C)C(=O)O)c(N2CCC(C)(C)CC2)c1-c1ccc(NCCc2ccc(F)cc2)cc1
8. Cc1nc(C)c([C@H](OC(C)(C)C)C(=O)O)c(N2CCC(C)(C)CC2)c1-c1ccc(OCCc2ccc(F)cc2)cc1

Result string:
1. 0.0117
2. 0.0167
3. 0.0067
4. 0.0127
5. 0.0181
6. 0.0155
7. 0.018
8. 0.0111

Query string: Which IC50 reading was recorded for the compound Cc1nc(C)c([C@H](OC(C)(C)C)C(=O)O)c(N2CCC(C)(C)CC2)c1-c1ccc(OCCc2ccc(Cl)cc2)cc1 ?
Result string: 0.0304
